Reference source for all entries: paper PMC3558805

- Test Name: Single rising dose plasma PK, OZ439 oral dispersion, fasted healthy subjects
- Assay type: in vivo, human
- Settings: human, plasma, po, 800 mg
Property Label: AUC(0-inf)

Lab note: measured AUC(0-inf) of c1cc([C@H]2CC[C@]3(CC2)OO[C@]2(O3)C3CC4CC(C3)CC2C4)ccc1OCCN1CCOCC1 [OZ439] was 9790 ng·h/mL

---

- Test Name: Single rising dose plasma PK, OZ439 oral dispersion, fasted healthy subjects
- Type: in vivo, human
- Settings: human, plasma, po, 1600 mg
Property Label: Cmax (ng/mL)
Report as a plain number; the unit ng/mL is understood.

Lab note: measured Cmax of c1cc([C@H]2CC[C@]3(CC2)OO[C@]2(O3)C3CC4CC(C3)CC2C4)ccc1OCCN1CCOCC1 [OZ439] was 1340
